Sequence of the target: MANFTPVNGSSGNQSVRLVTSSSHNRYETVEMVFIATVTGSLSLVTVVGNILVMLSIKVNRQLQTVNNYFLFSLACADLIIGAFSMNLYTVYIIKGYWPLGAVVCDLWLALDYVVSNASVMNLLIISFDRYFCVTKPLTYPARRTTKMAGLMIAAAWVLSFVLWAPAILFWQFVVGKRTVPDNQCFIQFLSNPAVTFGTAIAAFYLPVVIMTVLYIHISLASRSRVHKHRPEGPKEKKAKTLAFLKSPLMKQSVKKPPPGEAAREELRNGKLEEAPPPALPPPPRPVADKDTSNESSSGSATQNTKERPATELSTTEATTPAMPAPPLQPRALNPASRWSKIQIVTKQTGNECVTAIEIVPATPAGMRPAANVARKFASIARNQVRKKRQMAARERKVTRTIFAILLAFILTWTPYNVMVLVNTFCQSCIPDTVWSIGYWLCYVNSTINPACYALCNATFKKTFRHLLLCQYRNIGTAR
pIC50: −log10 of the molar value.
observation type: pIC50

> print(dat)
                                   molecule  assay.result
1  CC(=O)NC(CCCNC(=N)N)C(=O)CCCCCCCCNC(=N)N (stereo unspecified)          6.04

Source of measurements: ChEMBL document CHEMBL1159254
